Kindly supply the reported NO IC50 Relative to RTA 402 (fold) (Mean ± SD) values for the records listed here.
- System: RAW 264.7 cells
- protocol-description: Nitric oxide suppression assay (IFNγ-induced NO production)
- Format: cell-based, mouse
- condition-parameters: average of ratios from replicate experiments; benchmark RTA 402
Could you kindly put the unit after your number?

[in] Need NO IC50 Relative to RTA 402 (fold) (Mean ± SD) of Cc1noc([C@]23CCC(C)(C)C[C@H]2[C@H]2C(=O)C=C4[C@@]5(C)C=C(C#N)C(=O)[C@@H](C)[C@@H]5CC[C@@]4(C)[C@]2(C)CC3)n1 [CC3, reference compound] , thanks.
[out] 0.40 ± 0.06 fold

[in] Endpoint output: NO IC50 Relative to RTA 402 (fold) (Mean ± SD) of `CC1(C)CC[C@]2(c3nc(C4CC4)no3)CC[C@]3(C)[C@H](C(=O)C=C4[C@@]5(C)C=C(C#N)C(=O)C(C)(C)[C@@H]5CC[C@]43C)[C@@H]2C1` . Value?
[out] 2.49 fold

[in] What value of measured NO IC50 Relative to RTA 402 (fold) (Mean ± SD) is listed for `CC1(C)CC[C@]2(c3nnc(C(F)(F)F)o3)CC[C@]3(C)[C@H](C(=O)C=C4[C@@]5(C)C=C(C#N)C(=O)C(C)(C)[C@@H]5CC[C@]43C)[C@@H]2C1` ?
[out] 3.81 ± 0.34 fold

[in] Give the measured NO IC50 Relative to RTA 402 (fold) (Mean ± SD) of `C[C@@H]1C(=O)C(C#N)=C[C@]2(C)C3=CC(=O)[C@@H]4[C@@H]5CC(C)(C)CC[C@]5(c5nnc(CF)o5)CC[C@@]4(C)[C@]3(C)CC[C@@H]12` .
[out] 0.20 ± 0.02 fold

[in] Find the recorded NO IC50 Relative to RTA 402 (fold) (Mean ± SD) belonging to `CC1(C)CC[C@]2(c3nc(CC4CC4)no3)CC[C@]3(C)[C@H](C(=O)C=C4[C@@]5(C)C=C(C#N)C(=O)C(C)(C)[C@@H]5CC[C@]43C)[C@@H]2C1` and report it.
[out] 2.97 fold
